- Test description: solvent given as SMILES
- Test conditions: in CC(C)=O
Kindly state absorption maximum for each of the entries shown.
Only the number, expressed in nm, is required.

Please fill in: absorption maximum reported for `COc1ccccc1C1=C2C(C)=CC(C)=[N+]2[B-](F)(F)n2c(C)cc(C)c21` = 501

Please fill in: absorption maximum reported for `CC[n+]1c(/C=C/c2c([O-])ccc3ccc(=O)oc23)sc2ccccc21` = 590.56

Please fill in: absorption maximum reported for `CC(=O)O[B-]1(OC(C)=O)OC(/C=C/c2cccc3ccccc23)=CC(/C=C/c2cccc3ccccc23)=[O+]1` = 464

Please fill in: absorption maximum reported for `CCCCCCCCCCCCCCCC[n+]1ccc(/C=C/c2ccc(N(C)C)cc2)cc1` = 477

Please fill in: absorption maximum reported for `COc1cc(N(c2ccccc2)c2ccc(C=C(C#N)C#N)c(OC)c2)ccc1C=C(C#N)C#N` = 470

Please fill in: absorption maximum reported for `CN(C)c1ccc(C#Cc2ccc(C=O)cc2)cc1` = 388

Please fill in: absorption maximum reported for O=P1(c2ccccc2)C(c2cc(C(F)(F)F)cc(C(F)(F)F)c2)=Cc2c3ccc4cccc5ccc(c6cc(-c7ccccc7)n1c26)c3c45 (centres undefined) = 446

Please fill in: absorption maximum reported for `COC(=O)c1ccc(C#Cc2ccc(N(C)C)cc2)cc1` = 362

Please fill in: absorption maximum reported for `CN(C)c1cccc2c1ccc1c(=O)oc(-c3ccc(C(F)(F)F)cc3)cc12` = 392

* * *

- Test description: solvent given as SMILES
- Test conditions: in Cc1ccccc1
Kindly state absorption maximum for each of the entries shown.
Only the number, expressed in nm, is required.

Please fill in: absorption maximum reported for `CCCCCCc1ccc(-n2c3[n+](c4c5ccccc5c5ccccc5c42)[B-](C)(C)c2cc(-n4c5ccccc5c5ccccc54)ccc2-3)cc1` = 375

Please fill in: absorption maximum reported for `C(=C\c1ccc(-c2nnc(-c3ccc(/C=C/c4ccc(-c5nc(-c6ccccc6)c(-c6ccccc6)[nH]5)cc4)cc3)o2)cc1)/c1ccc(-c2nc(-c3ccccc3)c(-c3ccccc3)[nH]2)cc1` = 397

Please fill in: absorption maximum reported for Cc1ccc(N2C(c3ccccc3N)=NC(c3ccccc3)C2c2ccccc2)cc1 (configuration not stated) = 282

Please fill in: absorption maximum reported for `CCCCCCCCCCCCCCCC[n+]1ccc(/C=C/c2ccc(N(C)C)cc2)cc1` = 474.8

Please fill in: absorption maximum reported for `Cc1cc(-c2nnc(-c3c(C(C)C)cc(C(C)C)cc3C(C)C)o2)ccc1-n1c2ccccc2c2ccccc21` = 339

Please fill in: absorption maximum reported for `COC(=O)/C(C#N)=C/c1cn(-c2ccccc2)nc1-c1ccc([N+](=O)[O-])cc1` = 347

Please fill in: absorption maximum reported for `CN(C)c1ccc(/C=C/c2nc3c4ccccc4c4ccccc4c3[nH]2)cc1` = 393

Please fill in: absorption maximum reported for `N#Cc1cc(-n2c3ccccc3c3ccccc32)c(-n2c3ccccc3c3ccccc32)cc1C#N` = 375

Please fill in: absorption maximum reported for `CN1c2ccc(C(=O)c3ccccc3)cc2Sc2cc(C(=O)c3ccccc3)ccc21` = 405

Please fill in: absorption maximum reported for `COC(=O)c1ccc(C#Cc2ccc(N(C)C)cc2)cc1` = 369.49

Please fill in: absorption maximum reported for `Oc1ccc2ncccc2c1` = 332

Please fill in: absorption maximum reported for `CCCCCCC(CCCCCC)N1C(=O)c2cccc3c(-c4ccccc4)ccc(c23)C1=O` = 346.8

Please fill in: absorption maximum reported for `CCOC(=O)CN1C(=O)C2=C(c3ccc(C#N)cc3)N(CC(=O)OCC)C(=O)C2=C1c1ccc(C#N)cc1` = 482

Please fill in: absorption maximum reported for `CCN(CC)c1ccc(/C=C/C(=O)c2c(O)cc(C)oc2=O)cc1` = 471

Please fill in: absorption maximum reported for `CCCCCCCCCCn1nnc(-c2ccc(C#Cc3ccc(C#Cc4ccc(-c5nnn(CCCCCCCCCC)n5)cc4)c4nc5c6ccccc6c6ccccc6c5nc34)cc2)n1` = 428

Please fill in: absorption maximum reported for CCCCC(CC)CN1C(=O)C2=C(c3ccc(-c4ccc(C5=C6C(C)=CC(C)=[N+]6[B-](F)(F)n6c(C)cc(C)c65)cc4)s3)N(CC(CC)CCCC)C(=O)C2=C1c1cccs1 (configuration not stated) = 580

Please fill in: absorption maximum reported for `c1ccc2c(c1)Cc1ccccc1N2c1c2ccccc2c(N2c3ccccc3Cc3ccccc32)c2ccccc12` = 440
